# Tested on: HCC1569;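 also: TDF is a line of transformed human dermal fibroblasts of mesenchymal origin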
# testMethodNotes: H1.0 immunofluorescence intensity relative to DMSO (% of DMSO); higher = stronger H1.0 induction, active = 140 or more
# testContext: concentration: 10 µM; 24 h
Classes used: active, inactive

1) O=C1Cc2c([nH]c3ccc([N+](=O)[O-])cc23)-c2ccccc2N1 : inactive
2) NS(=O)(=O)c1ccc(N2CCN(CC[C@@H]3OCCc4ccccc43)CC2)cc1 : inactive
3) Cc1cccc(C)c1OCC(N)C(C)C.I (stereo not given) : inactive
4) O=c1[nH]cc(F)c(=O)[nH]1 : inactive
5) COCCCCC(=NOCCN)c1ccc(C(F)(F)F)cc1.O=C(O)C=CC(=O)O [Fluvoxamine maleate] : inactive
6) N#CC(=Cc1ccc(O)c(O)c1)C(=O)c1ccc(O)c(O)c1 : active
7) CCCCCC=CC=CC(O)CCCCCCCC(=O)O (stereo not given) : inactive
8) CCN(CC)CCNC(=O)c1cc(S(C)(=O)=O)ccc1OC.Cl [Tiapride hydrochloride] : inactive
9) CN(C)CCC(c1ccc(Cl)cc1)c1ccccn1.O=C(O)C=CC(=O)O (single isomer, unassigned; (+)) [(+)-Chlorpheniramine maleate] : inactive
10) NC(N)=Nc1nc(CSCCC(N)=NS(N)(=O)=O)cs1 : inactive
11) CCCCCCC=CC=CCCCCCCCC(=O)O [9(Z), 11(Z)-octadecadienoic acid] : inactive
12) CCCCCCCCCCCCCCCC(O)C(N)CO (racemic) [DL-Dihydrosphingosine] : inactive
13) Nc1nc(=O)c2ncn(COC(CO)CO)c2[nH]1 : inactive
14) COCCCOc1ccnc(CS(=O)c2nc3ccccc3[n-]2)c1C.[Na+] (stereo not given) : inactive
15) CCCCCCCCCCCCCCCCCCCCCCC(=O)O : inactive
16) O=[NH+]C=C1C=CN(CN2C=CC(=C[NH+]=O)C=C2)C=C1.[Br-].[Br-] [1,1'-methylenebis(4-(nitrosomethyl)pyridinium) bromide] : inactive
17) COC(=O)C1C(O)CCC2CN3CCc4c([nH]c5ccccc45)C3CC21 (stereo not given) : inactive
18) CC1=C(C)C(=O)C(CCCCC#CCCCC#CCO)=C(C)C1=O : inactive
19) Br.Br.NC(N)=NCCSSCCN=C(N)N [Guanidinoethyl disulfide dihydrobromide] : inactive
20) O=C(CCc1ccc(O)cc1)c1c(O)cc(O)cc1OC1OC(CO)C(O)C(O)C1O (stereo not given) : inactive
21) CC(=O)O.NC(N)=NN=Cc1c(Cl)cccc1Cl [Guanabenz acetate] : inactive
22) CC#N.Nc1nc(Nc2ccc(S(N)(=O)=O)cc2)nn1C(=O)c1c(F)cccc1F : inactive
23) Cc1ccc(F)cc1C(=O)Nc1ccc(C(=O)N2Cc3cccn3Cc3ccccc32)c(Cl)c1 : inactive
24) O=C(Nc1ccc(N2CCOCC2)c(S(=O)(=O)Nc2ccccc2Cl)c1)c1ccncc1 : inactive
25) CCCCCC=CCC=CCC=CC=CC1CCCC(=O)O1 (racemic) : inactive
26) CCOC(OCC)P(=O)(O)CCCNCc1ccc(Cl)c(Cl)c1 : inactive
27) Cl.NCC1OC(C23CC4CC(CC(C4)C2)C3)Cc2c1ccc(O)c2O (stereo not given) : inactive
28) CN(C)c1ccc(C2Nc3ccc4ccccc4c3C3=C2C(=O)CC(C)(C)C3)cc1Br (stereo not given) : inactive
29) CNCC(O)c1ccc(O)c(O)c1.O=C(O)C(O)C(O)C(=O)O [L-(+)-Epinephrine tartrate] : inactive
30) CCCCCC=CCC(O)C=CC=CCCC(=O)O [Tetranor-12(R)-HETE] : inactive
31) Oc1ccc(Cn2cc[nH]c2=S)cc1 [1-(4-Hydroxybenzyl)imidazole-2-thiol] : inactive
32) C[N+](C)(C)CCOC(=O)CCC(=O)OCC[N+](C)(C)C.O.O.[Cl-].[Cl-] : inactive
33) Cl.O=c1n(CCCN2CCN(c3cccc(Cl)c3)CC2)nc2ccccn12 [Trazodone hydrochloride] : inactive
34) CC(C)C(=O)c1c(C(C)C)nn2ccccc12 : inactive
35) N#Cc1cccc(-c2c[nH]c3ncnc(N4CCOCC4)c23)c1 [3-(4-morpholino-7H-pyrrolo[2,3-d]pyrimidin-5-yl)benzonitrile] : inactive

Values were extracted from the supplement of paper PMC7156485.
